# test_details: Microsomal stability, Human
# Format: in vitro ADME
# condition_parameters: microsomes, Conc. 5 uM
metric: microsomal CLint at 5 uM
The answer consists of two parts: a number and, after it, its unit.

**Query** Which value of microsomal CLint at 5 uM has been reported for `CC(=O)Nc1cc(F)cc(-c2ccc3ncc(C)n3n2)c1` in the records?
**Result** 38.2 µL/min/mg

**Query** Try the compound `CC(=O)Nc1cc(F)cc(-c2ccc3[nH]cc(-c4ccccc4)c3n2)c1`
**Result** 11.6 µL/min/mg

---

Consider the following compounds; for each one, report its efflux ratio at 5 uM.
# test_details: Caco2 permeability
# Format: in vitro ADME
# condition_parameters: human, Caco-2; Conc. 5 uM

**Query** I would be grateful if you could share the reported efflux ratio at 5 uM for `CC(=O)Nc1cc(F)cc(-c2ccc3[nH]cc(-c4ccccc4)c3n2)c1` .
**Result** 3.9

**Query** Try this compound too: `CC(=O)Nc1cc(F)cc(-c2ccc3ncc(C)n3n2)c1`
**Result** 0.6

---

# test_details: Microsomal stability, Human
# Type: in vitro ADME
# condition_parameters: microsomes, Conc. 5 uM, read-out: Microsomal stability T½
metric: half-life at 5 uM (min)
Report as a plain number; the unit min is understood.

**Query** Recorded half-life at 5 uM of `CC(=O)Nc1cc(F)cc(-c2ccc3ncc(C)n3n2)c1` , please.
**Result** 36.2

---

# Tested on: SW480
# test_details: Cell viability, MTT assay, SW480
# Assay type: cell-based
# condition_parameters: SW480 (Colon)
# Description: To measure cell viability, cell titer glow (CTG, Promega CellTiter-Glo 2.0 Assay) and MTT assays (SigmaAldrich, Cell Proliferation Kit I) were performed. Briefly, cells were serum starved overnight prior to seeding in 96-well plates. […] At assay read-out, CellTiter-Glo reagent was added and luminescence was measured after 10-minutes incubation at room temperature. […] Subsequently, medium was removed and 50 μL DMSO was added to solubilize the crystals, and absorbance was measured at 570 nm. […]
metric: IC50
A complete answer gives the number followed by the unit.

**Query** Recorded IC50 for CC(=O)N(C)c1cccc(-c2ccc3nnc(C)n3n2)c1 [LN1632] , please?
**Result** 155 µM

---

# System: SW620
# test_details: Cell viability, CTG, SW620
# Type: cell-based
# condition_parameters: Homo sapiens, SW-620, SW620 (Colon)
metric: IC50 (µM)
Dear colleague, please return just the value in µM, with no unit written.

**Query** Entry under review: CC(=O)Nc1cccc(-c2ccc3ncc(-c4ccccc4)n3n2)c1 [JGJ023] . Reported IC50?
**Result** 27

**Query** Repeat with CC(=O)Nc1cc(F)cc(-c2ccc3[nH]cc(-c4ccccc4)c3n2)c1 [JGJ037]
**Result** 15

**Query** Likewise for CC(=O)Nc1cccc(-c2ccc3[nH]cc(-c4ccccc4)c3n2)c1 [JGJ034] ?
**Result** 3

---

# test_details: Microsomal stability, CD-1 Mouse
# Format: in vitro ADME
# condition_parameters: microsomes, Conc. 30 uM
metric: CLint scaled at 30 uM (mL/min/kg)
Express it in mL/min/kg; write the number only.

**Query** Endpoint output: CLint scaled at 30 uM of CC(=O)Nc1cccc(-c2ccc3ncc(C)n3n2)c1 [JGJ007] . Value?
**Result** 257

**Query** Item: Cc1cnc2ccc(-c3cccc(F)c3)nn12 [JGJ015]
**Result** 988
